List of protein stability index values.
- protocol_notes: protein stability index of a GFP-peptide fusion (GPS, HEK-293T) (PSI 1-6); higher = more stable;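 further: 24-mer peptide tiles fused after GFP, lentivirally expressed, FACS-sorted into six equal bins by GFP/DsRed ratio, decoded by Illumina sequencing, PSI is the read-weighted mean bin number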
- measurement_setup: treatment: MLN4924 1 uM, 8 h; c terminus: a fixed tail appended
No unit in the answer, please; the number alone is enough.

These solved cases illustrate the format of a correct answer.
biosequence	recorded_number
VVLCEGVKWLSFHSGYDFGYLIKI [CNOT7]	3.09
TEKTTTVLSESSGPSNTSHSSSRD [C2CD2L]	5.31
YHEAPMTRKHYQVTGYGINGTGDS [POMT2]	3.42

protein stability index recorded for this sequence, TDIELEIYGMEGIPEKDMDERRRL [ZNF207] , is 4.86

Recorded result, EIIPINVNNNYEHRHTSHLGHAVL [SPRY1] , protein stability index: 2.43

So, VAVLLLFLVVREPPRGAVERHSDL [SPNS1] ? Its protein stability index was 2.99

* * *

Recorded protein stability index, one value per entry.
- protocol_notes: protein stability index of a GFP-peptide fusion (GPS, HEK-293T) (PSI 1-6); higher = more stable
- measurement_setup: treatment: MLN4924 1 uM, 8 h; c terminus: a fixed tail appended
Please reply with the value in numeric form only.

These solved cases illustrate the format of a correct answer.
biosequence	measurement_kind	recorded_number
IVYATEKKQTKVEFPEARIFEETL [KCTD13]	protein stability index	2.85
VVTTEHILVSVAAGVSLSTLEELL [PYCR3]	protein stability index	2.78
GSLHAGGARLVAACSAWLCPGLRL [AUH]	protein stability index	2.43
RGAQGVILVYDIANRWSFEGMDRW [RAB40A]	protein stability index	2.28
SGAVGARRFLLCLYLVGFLDLFGV [MFSD9]	protein stability index	2.84
APDPELAAEMYQRGRAVLREAGFH [RSAD1]	protein stability index	4.07
LLLELKGLQEEPVEGFRVTLVDEG [CDC34]	protein stability index	2.66
ITTNRFYGPQVNNISHTKEKKKGK [WASL]	protein stability index	4.37

Entry GTADGRVVKLENGEIETIARFGSG [APMAP] ; protein stability index = 4.64

Reported protein stability index of EFGALMSNYSLPPPLPTYHVLLEG [TRIM29] : 2.15

// sample LRREKPSEEMVKMVLSRPCHPDDQ [INTS3] , its protein stability index was 4.69

sequence APPTPPEEEDLRRRLKYFFMSPCD [MCOLN1] , protein stability index observed: 4.15

For this sequence ( QITSRVVSAATQLRHFFLVEDLVD [RTN2] ), measured protein stability index is 3

Short answer for ACGIEHCSVHYVSDSGDGVYAGRP [FBXO34] : protein stability index was 2.84

# sequence SSGRSCRNERSIQEKLQVLMAEGL [SMG5] ; its protein stability index = 2.88

* * *

- protocol_notes: protein stability index of a GFP-peptide fusion (GPS, HEK-293T) (PSI 1-6); higher = more stable
- measurement_setup: treatment: MLN4924 1 uM, 8 h; c terminus: a fixed tail appended
measurement_kind: protein stability index

Use these answered entries as a reference point.
biosequence	protein stability index
LPWFRTLSWYFLLCVNYFFYGETV [CDS1]	3.38
YPVGWPPVQELPPSLRAPPPGGWP [ZMAT5]	2.83
FFAFEHSEEYQQAQHKFLVAVESM [TCF25]	3.56
GDQDPLSKIPFKILSGHEHAVSTC [WDR88]	3.78
LSICFTCFKAAFLDFKDLLESEDW [TEX19]	2.69

In plain terms, TCSECGKGFIQKGNLNIHQRTHTG [ZNF649] has a documented protein stability index of 3.26

Just so you know, measured protein stability index for LELQRQREARKRALARKQAQEQLR [RSPH3] came out at 4.06

// protein stability index value for SPSPPVEVKIEEPVSMEMDNHMSD [INTS3] : 5.52

Reported protein stability index for RTGLEKAAAGAVGLERRDWSPSPP [SPDEF] was 4.49

protein stability index measured on AQPNTMLGRMFGSGREHNFTRPNE [BTBD10] = 3.61

Just so you know, measured protein stability index for IPLLSSVNVSDRGGRTALHHAALN [ANKRD44] came out at 3.16

Measured protein stability index of QTNKPALRAVRQRSEFTLMAKRIG [STX5] : 3.35

protein stability index for GVIVANMTEWKHQRITKQLEKWMQ [GLT8D2] is 2.4

Lab book: protein stability index of VYTETVHVTVENVQELLPAACLLQ [KLHL12] noted as 1.91

// GAREEDLDAVEAQIGCKLPDDYRC [FBXO3] : protein stability index value = 5.15

Looking up AKEEGGEEVAKAVLEQEETAAASR [EPB41L3] , I see its protein stability index listed as 5.79

The sequence listed as HVRQGVFSSLNHIVEKRVLAHLAP [INTS3] shows protein stability index equal to 2.41

Entry under test: GRCELARVLHDFGLDGYRGYSLAD [SPACA3] . Its protein stability index was 2.35

Looking up LILASELSRLSVNSVTAGDYSRPL [TSN] , I found its protein stability index recorded as 2.37

Briefly, protein stability index measured for ADDFRTKYEHELALRQTVEADVNG [KRT16] : 5.09

Lookup result for NTTLTQYQLLATHVPTVWAIDQYR [RHOBTB1] ; measured protein stability index: 2.41

Query EMSLAEELNHGRQGENQEHLVIAE [FATE1] yields protein stability index of 5.2

Entry VNIMRTYTYEKLLWTTSRVLKVLS [CTNNB1] — recorded protein stability index = 2.41

Value of measured protein stability index for the entry APQHPQPGSQALPAPALAPDQLPQ [FBXO28] : 5.04

protein stability index reading for SICMRMEILGCPLPDPNNYYHRRN [CPXM2] : 2.46

// KSVRLARELESREAELRRRDTFYK [CHCHD6] : protein stability index value = 4.36

protein stability index reported for this sequence AFPQTPFKTGNSTATCTTNNNPNS [KCNA3] : 4.62

* * *

Listing: protein stability index of selected sequences
- protocol_notes: protein stability index of a GFP-peptide fusion (GPS, HEK-293T) (PSI 1-6); higher = more stable
- measurement_setup: treatment: DMSO; c terminus: a fixed tail appended
Give your answer as a number; write no unit.

Guide cases for protein stability index, answers given:
biosequence	protein stability index
EGSRSSGSNRSGSDRRKEKDPKAG [DVL3]	5.38
LGRPDSLELQRQREARKRALARKQ [RSPH3]	4.6
KCVVHIHTPAGAAVSAMKCGLLPI [ADD1]	2.69
GQYATTKGISQTNLITTVTPEKKA [EPB41L3]	5.07
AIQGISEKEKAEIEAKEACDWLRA [DLC1]	4.69
LLDEIVPVYRRDCHEEVYAGSHQY [ACBD3]	3.03
KDLSNTFAKLEKLTILAKRKSLFD [STX5]	2.45
RNLGSINTELQDVQRIMVANIEEV [SEC22B]	4.1
AVWGQCQVRIRYLGERRAEPHSLL [SPSB2]	2.26
NSVCSKFRKEIKSKSADNQEYFER [RHOBTB1]	4.26

The sequence listed as VKWMVVFAIGVCTGLVGLFVDFFV [CLCN6] has a reported protein stability index of 2.16

The sequence identified as HQEGAKMAVRLAGGLQKMVALLNK [CTNNB1] registered its protein stability index at 2.4

Consider KSPIAPCSLDKRVILIFHCEFSSE [CDC25B] . Its measured protein stability index is 2.73

* * *

- protocol_notes: protein stability index of a GFP-peptide fusion (GPS, HEK-293T) (PSI 1-6); higher = more stable
- measurement_setup: treatment: MLN4924 1 uM, 8 h; c terminus: a fixed tail appended
Everything with protein stability index lower than 3 is -1; everything else, including exactly 3, is 1.

biosequence	label
GCKGFFRRSVRKNHMYSCRFSRQC [HNF4A]	-1
LNLTEGFAVLHWKPPQNPVDTYDV [TNXB]	-1
EAAEGRNKNEVFYQCPDQMARNPA [FBXO3]	1
FSAEFLKVFIPSLFLSHVLALGLG [BNIP3L]	-1
LNSMPKRLCLVCGDIASGYHYGVA [ESRRG]	-1
SDVVEYAKEKLESFIKNSDSFDKF [PCMTD1]	1

Consider the additional sequence presented here.
I'd appreciate it if you could say whether SQFLKHQQTHNIEKAHECTDCGKA [ZNF649] has protein stability index at least equal to 3. 1

* * *

- protocol_notes: protein stability index of a GFP-peptide fusion (GPS, HEK-293T) (PSI 1-6); higher = more stable
- measurement_setup: treatment: MLN4924 1 uM, 8 h; c terminus: a fixed tail appended
measurement_kind: protein stability index

The examples below pair each entry with its known result.
biosequence	result
LQKKVEQLSRELSTLRNLFKQLPE [CEBPB]	2.43
LDQLDESLRDKVLQLQKGSDTEAQ [INTS3]	5.31
WPFSMDCTGTEAHISSCKLGPQVS [LOXL2]	3.08

Just so you know, measured protein stability index for AQLQDFVRAKGSQSGRHLQTHSNT [STX5] came out at 4.24

Consider PATSPLVLAIPRRLRVELECEEGE [TRIM35] . Its measured protein stability index is 4.78

Sample GQYATTKGISQTNLITTVTPEKKA [EPB41L3] ; protein stability index observed: 5.11

According to the records, this sequence YDKNIIHKTAGKRYVYRFVCDLQS [ETS1] displays protein stability index of 2.14

Lookup result for PVVGSTRRLYEKKIFEYETQRRRL [EMD] ; measured protein stability index: 3.18
